The values you see were collected from PubChem BioAssay.

Experiment: reduction of polyQ htt aggregates in cells – imaging, exon1htt(103Q)mCFP cells, high-content imaging, primary screen (AID 483);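 also: compound exposure lasted 3 days before fixation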
Conditions: exon1htt(103Q)mCFP cell line, aggregate imaging, at 2 µM
The source made the active and inactive calls.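 The calls were made as follows: active = visual image review flags a hit and inhibition of aggregation exceeds 20%; inconclusive = visual hit but inhibition at or below 20%; inactive = no hit on visual image review.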
Outcomes: active, inactive

• Cn1cc(CC(=O)Nc2cccc(C#N)c2)c2ccccc21 = inactive
• CCOC(=O)COc1ccc(S(=O)(=O)N2CCc3ccccc3C2)cc1 = inactive
• COC(=O)c1c(N)nc(C)n1-c1ccc(OC)cc1 = active
• O=c1c2c(nc3nc(COc4ccccc4)[nH]n13)CCC2 = inactive
• Cc1cc(C)c2oc(=O)cc(CN3CCOCC3)c2c1 = inactive
• CCN(CC)CCCN(Cc1cc2cc(OC)ccc2[nH]c1=O)C(=O)Nc1ccccc1 = inactive
• CCN1C(=O)N(CC)C2C1N(C(C)=O)C(=O)N2C(C)=O (stereo unspecified) = inactive
• Cn1c(=O)c(NC(=O)c2ccccc2)c2n(c1=S)CCCCC2 = inactive
• COC(=O)c1onc(C(=O)c2ccccc2)c1C(=O)OC = inactive
• O=C(c1cccs1)c1cn(CC(=O)N2CCc3ccccc3C2)c2ccccc12 = inactive
• CCOc1ccc(CCNC(=O)CCc2nc(-c3ccc(OC)cc3)no2)cc1OCC = inactive
• CC(=O)O[C@]1(C(C)=O)CC[C@H]2[C@@H]3C=C(Cl)C4=CC(=O)CC[C@]4(C)[C@H]3CC[C@@]21C = inactive
• CCOC(=O)CN(C)Cc1c[nH]c2ccccc12 = inactive
• Cc1ccccc1NC(=O)C1Cc2ccccc2C(=O)O1 (stereo unspecified) = inactive
• CC(C)(C)OC(=O)N1CC(O)CC1C(=O)OCC(=O)c1ccc(Cl)cc1 (stereo unspecified) = inactive
• CCOP(=O)(c1ccc(N(C)C)cc1)C(O)c1cc(OC)c(OC)c(OC)c1 (stereo unspecified) = inactive
• O=C(NCc1ccc2c(c1)OCO2)c1cc2n(n1)C(C(F)(F)F)CC(c1ccc3c(c1)OCO3)N2 (stereo unspecified) = inactive
• CCOC(=O)N1CCN(C(=O)c2ccc(N3C(=O)CCC3=O)cc2)CC1 = inactive
• COc1ccc(-c2noc(CCC(=O)NCCCN3CCC(Cc4ccccc4)CC3)n2)cc1 = inactive
• COc1ccc(S(=O)(=O)n2ccnc2)c2cccnc12 = inactive
• CCN(CC)S(=O)(=O)c1ccc2oc(C(=O)O)c(C)c2c1 = inactive
• CC(C)=CC(=O)Nc1ccc(Br)cc1 = inactive
• CC(=O)N1CCc2cc(S(=O)(=O)NC(C(=O)NCc3ccccc3)C(C)C)ccc21 (stereo unspecified) = inactive
• Cc1ccc(CNC(=O)C2CCN(S(=O)(=O)c3c(C)noc3C)CC2)cc1 = inactive
• Cc1cccn2cc(-c3ccccc3)nc12 = inactive
• O=C1C=C(NCc2ccco2)C2(CCCCC2)O1 = inactive
• S=c1[nH]nc(COc2ccccc2)n1C1CCCCC1 = inactive
• COc1cc(NS(=O)(=O)c2ccc(N)cc2)ncn1 = inactive
• O=C(Cn1nnc(-c2ccncc2)n1)Nc1ccc2c(c1)CCC2 = inactive
• Cc1nc2ccccc2c(=O)n1NC(=O)c1ccc(F)cc1Cl = inactive
• COc1ccc(CCNC(=O)C2CCN(Cc3nc(-c4cccc(Cl)c4)oc3C)CC2)cc1OC = inactive
• Cc1ccc(Cn2c(C)nc3c(c2=O)c2nc4ccccc4nc2n3Cc2ccco2)cc1 = inactive
• CCOC(=O)Cc1nn2c(=O)cc(C)nc2s1 = inactive
• COCC(=O)Nc1sc2c(c1C(=O)OC)CCC(C)C2 (stereo unspecified) = inactive
• CCOc1ccc(OCc2ccc(C(=O)Nc3cccc(C)n3)o2)cc1 = inactive
• O=C(COC(=O)c1cc(S(=O)(=O)N2CCOCC2)ccc1O)NCC1CCCO1 (stereo unspecified) = inactive
• CC(C)(C)OC(=O)N1CCOCCOCCN(C(=O)OC(C)(C)C)CCOCCOCC1 = inactive
• Cc1ccc(NC(=O)Nc2ccc3c(c2)N(C)C(=O)CS3)nc1 = inactive
• COCc1cc(C)c2c(N)c(C#N)sc2n1 = inactive
• CCn1nnnc1NCc1cccn1C = inactive
• Cc1ccc(C)c(SCC(=O)Nc2nnc(-c3ccccc3)o2)c1 = inactive
• O=C(CN1C(=O)c2cccc3cccc1c23)Nc1ccccc1C(=O)NCc1ccco1 = inactive
• O=S(=O)(c1ccccc1)N1CCSC1c1ccco1 (stereo unspecified) = inactive
• Cc1cc(=O)n2[nH]c(COc3ccccc3)nc2n1 = inactive
• CC(=O)OCC1=C(C(=O)O)N2C(=O)[C@@H](NC(=O)Cc3cccs3)[C@H]2SC1 = inactive
• CCOc1cc(C)c(Cl)cc1S(=O)(=O)N(C)C = inactive
